Values compiled from patent US20250215412A1.

Biological target: T1, Chryseobacterium sp-62563 deamidase polypeptide (second polypeptide, deamidase domain), wildtype (Chryseobacterium sp-62563)
T1 sequence: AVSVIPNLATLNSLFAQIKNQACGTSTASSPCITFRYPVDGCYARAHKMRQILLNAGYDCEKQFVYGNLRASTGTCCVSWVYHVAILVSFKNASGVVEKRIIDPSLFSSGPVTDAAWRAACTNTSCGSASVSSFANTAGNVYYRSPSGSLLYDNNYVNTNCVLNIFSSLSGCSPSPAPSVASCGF
Assay: cell-based or functional assay
metric: Leakage activity (%)

Example entries begin here.
Chryseobacterium sp-62563 propeptide K86G (protein) NQDPNLVAKESNETAMKDFGKTVPVGIEKEDGKFKISFMVTAQPYEIKDSKENAAYISMIKTAVENETPIHVFLKANTNEIAKVDGATDDDIRYFKSVFTKEVKEENRK :: 0
Chryseobacterium sp-62563 propeptide Q43R (protein) NQDPNLVAKESNETAMKDFGKTVPVGIEKEDGKFKISFMVTARPYEIKDSKENAAYISMIKTAVENETPIHVFLKANTNEIAKVDKATDDDIRYFKSVFTKEVKEENRK :: 0

P: Chryseobacterium sp-62563 propeptide F95D (protein) NQDPNLVAKESNETAMKDFGKTVPVGIEKEDGKFKISFMVTAQPYEIKDSKENAAYISMIKTAVENETPIHVFLKANTNEIAKVDKATDDDIRYDKSVFTKEVKEENRK
Q: Chryseobacterium sp-62563 propeptide D18P (protein) NQDPNLVAKESNETAMKPFGKTVPVGIEKEDGKFKISFMVTAQPYEIKDSKENAAYISMIKTAVENETPIHVFLKANTNEIAKVDKATDDDIRYFKSVFTKEVKEENRK
Of the two listed items, P and Q , which carries the larger Leakage activity figure? Write the label of whichever entry you select.
P
